Here, each record is paired with measured pKd data.
Target: T1, 10E8-GT10.2 epitope scaffold (designed scaffold 10E8-GT10.2 with …, N-linked glycosylation sites added (positions not given))
T1 chain: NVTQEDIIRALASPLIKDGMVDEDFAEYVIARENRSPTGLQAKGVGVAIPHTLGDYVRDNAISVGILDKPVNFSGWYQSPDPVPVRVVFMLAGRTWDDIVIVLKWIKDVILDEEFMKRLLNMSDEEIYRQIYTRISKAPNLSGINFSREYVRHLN
Notebook: values listed as pKd are -log10 of the concentration (mol/L).

[
  {
    "binder": "NHP-10E8_MPER-GT10v55_W21-06 (antibody, V domains shown) VH: EVRLVESGGGLVQPGGSLRLSCAASGFTFSDYYMSWVRQAPGKGPEWVGFIRNKANGGTAEYAASVKGRFTISRDDSKSIASLQMNSLKTEDTAVYYCAREKVYYNFWSGYLENYGLDSWGQGVVVTVSS VL: DVVMTQSPLSLPITPGQPASISCRSSQSLVYSDGKTYLNWYQQKPGQPPRRLIYQVSNRDSGVPDRFSGSGAGTDFTLKISRVEAEDVGVYYCMQGTHLPYSFGQGTKVEIK",
    "propertyLabel": "pKd",
    "experimentalValue": 5.23
  },
  {
    "binder": "MPER18_d21_45.2_v55_m15_C05 (antibody, V domains shown) VH: QVQLQESGPGLVKPSETLSLTCTVSGGSISSYCWSWIRQSPGKGLEWIGYIYYSGSINHNPSLKSRVTISADTSKNQFSLKLSSVTAADTAVYYCAREPPYYDFWSGLSMGVGAFDIWGQGTMVTVSS VL: DIVMTQSPLSLPVSLGDQASISCRSSQSLVHNNGNTYLHWYLQQPGQSPKLLIYNFSNRFSGVPDRFSGSGSGTDFTLKISRVEAEDLGVYFCSQSTHVPRTFGGGTKLEIK",
    "propertyLabel": "pKd",
    "experimentalValue": 6.40
  },
  {
    "binder": "NHP-10E8_MPER-GT10v55_W21-17 (antibody, V domains shown) VH: QVQLQESGPGLVKPSETLSLTCVVAGGSISDDYYWSWIRQSPGKGLEWIGYIYGSGGGTKYNPSLKNRVTISIDTSKNQFSLKLSSVTAADTAVYYCARELRYYNFWSGYYDNYYGLDSWGQGVVVTVSS VL: DIVMTQTPLSLPITPGEPASISCRSSQSLLHSTGNTYLHWYLQKPGQSPQLLIYGGSNRASGVPDRFSGSGSGTDFTLKISKVEAEDVGVYYCVQAIAFPFTFGPGTKLDIK",
    "propertyLabel": "pKd",
    "experimentalValue": 8.62
  },
  {
    "binder": "NHP-10E8_MPER-GT10v55_W26-04 (antibody, V domains shown) VH: EVQLVESGGGLVQPGGSLRLSCAASGFTFSSYGMHWVRQAPGKGLEWVAVIWYDGSKKYYADSVKDRFTISRDNSKNMLYLQMNNLKLEDTAVYYCARGGAYYNFWSGYYTLLNRFDVWGPGVLVTVSS VL: DIVMTQTPLSLPVTPGEPASISCRSSQSLLDSEDGNTYLDWYLQKPGQSPQLLIYEVSNRASGVPDRFSGSGSDTDFTLKISRVEAEDVGVYYCMQGLEFPYSFGQGTKVEIK",
    "propertyLabel": "pKd",
    "experimentalValue": 5.30
  }
]

Pending binder:
Q) Consider the binder NHP-10E8_MPER-GT10v55_W21-02 (antibody, V domains shown) VH: EVQLVESGGGLVQPGGSLRLSCAASGFTFSNYWMSWVRQAPGKGLEWVGFIKNKADGGTAAYAESVKGRFTISRDDSKNTLYLQMNSLKTEDTAVYYCARAGAPYYNFWSGYYESYDAFDFWGQGLRVTVSS VL: QPVLTQPTSLSASPGASARLTCTLRSGISVGSYRIFWYQQKPGSPPRYLLNYHTDSDKHQGSGVPSRFSGSKDASANAGILLISGLQSEDEADYYCMIWHNNAVLFGGGTRLTV . State its measured pKd.
A) 5.34
